FYI, the data here is from paper PMC11207065.

# System: nitric oxide production in LPS and IFN-γ-stimulated BV2 cells
# PROTOCOL_SUMMARY: Nitric oxide (nitrite, Griess method) measurement in LPS and IFN-γ-stimulated BV2 cells
# Type: cell-based
# CONDITION_SUMMARY: 12.5 µM, LPS and IFN-γ-stimulated BV2 cells, 24 h
MEASUREMENT_LABEL: Effect on nitrite (NO) levels versus control group

- COMPOUND: "CC(=O)OC1CC(C)(C)C2CCc3cc(C(C)C)c(O)cc3C2(C(=O)O)C1 (stereo not shown)"
  TARGET: "nitric oxide production in LPS and IFN-γ-stimulated BV2 cells"
  ENDPOINT_RESULT: "No significant effect"
- COMPOUND: "CC(C)c1cc2c(cc1O)[C@@]1(C)C[C@@H](O)CC(C)(C)[C@@H]1CC2=O [Compound 6, 2α-hydroxysugiol]"
  TARGET: "nitric oxide production in LPS and IFN-γ-stimulated BV2 cells"
  ENDPOINT_RESULT: "No significant effect"
